molecular target: AMPK beta 1 (Homo sapiens, UniProt Q13131+Q9Y478); construct: in-cell-ELISA for phospho-ACC (Acetyl-CoA carboxylase 1) in HepG2 cells (liver); endogenous in cells; host or cells: HepG2 (assignment to the beta 1 column inferred); assay: in-cell-ELISA for phospho-ACC: activation of AMPK, beta 1 (HepG2 cells / C2C12 myotubes); format: cell-based; details: 2 h, 10 μM, percentage activation over vehicle control, read-out: Percentage activation of beta 1 at given concentration
Sequence (Q9Y478 2-270 limits assumed): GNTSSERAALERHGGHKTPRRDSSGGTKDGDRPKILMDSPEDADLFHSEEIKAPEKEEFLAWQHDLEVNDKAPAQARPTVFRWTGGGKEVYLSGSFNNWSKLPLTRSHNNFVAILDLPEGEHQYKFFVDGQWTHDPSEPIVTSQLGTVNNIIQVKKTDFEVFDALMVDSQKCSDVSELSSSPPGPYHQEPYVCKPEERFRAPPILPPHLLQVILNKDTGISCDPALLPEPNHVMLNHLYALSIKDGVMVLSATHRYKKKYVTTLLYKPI
Sequence (Q13131 whole entry): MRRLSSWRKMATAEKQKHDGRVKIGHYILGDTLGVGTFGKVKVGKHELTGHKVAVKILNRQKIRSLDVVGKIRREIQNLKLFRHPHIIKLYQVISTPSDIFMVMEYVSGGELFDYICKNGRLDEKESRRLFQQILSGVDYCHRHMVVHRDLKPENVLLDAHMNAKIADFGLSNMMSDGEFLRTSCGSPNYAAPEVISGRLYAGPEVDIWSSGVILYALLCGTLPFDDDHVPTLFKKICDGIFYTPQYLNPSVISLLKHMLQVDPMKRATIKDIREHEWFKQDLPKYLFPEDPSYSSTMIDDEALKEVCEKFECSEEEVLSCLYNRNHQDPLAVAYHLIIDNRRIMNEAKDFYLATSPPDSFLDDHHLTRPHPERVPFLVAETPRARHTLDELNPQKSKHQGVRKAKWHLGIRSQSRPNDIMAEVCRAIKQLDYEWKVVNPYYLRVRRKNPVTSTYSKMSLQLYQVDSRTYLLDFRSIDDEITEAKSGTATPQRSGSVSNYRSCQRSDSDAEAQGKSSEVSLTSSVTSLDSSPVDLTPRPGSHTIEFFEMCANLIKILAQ
Sequence (P54619 whole entry partner): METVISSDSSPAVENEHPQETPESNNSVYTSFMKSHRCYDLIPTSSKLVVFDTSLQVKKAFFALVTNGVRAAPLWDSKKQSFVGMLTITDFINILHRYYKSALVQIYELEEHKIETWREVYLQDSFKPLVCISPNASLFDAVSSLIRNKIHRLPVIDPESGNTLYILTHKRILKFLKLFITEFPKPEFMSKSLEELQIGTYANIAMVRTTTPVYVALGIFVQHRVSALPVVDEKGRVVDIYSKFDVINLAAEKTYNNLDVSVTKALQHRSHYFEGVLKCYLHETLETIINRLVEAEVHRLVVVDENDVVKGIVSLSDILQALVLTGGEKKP
Entries and their activation at 10 µM values follow.
# unit: % | format: bare number

Worked examples, 3 compounds total:
Req: Please give measured activation at 10 µM of the following entry: Cc1ccc(C2CC23C(=O)Nc2cc(Cl)c(-c4ccc(-c5cnn(C)c5)cc4)cc23)cc1C(=O)O (stereo not shown)
Resp: 127

Req: Please give measured activation at 10 µM of the following entry: Cn1cc(C2CC23C(=O)Nc2cc(Cl)c(-c4ccc(-c5ccc(-n6cccn6)cc5)cc4)cc23)cc1C(=O)O (stereo not shown)
Resp: 48

Req: Please give measured activation at 10 µM of the following entry: Cc1ccc(C2CC23C(=O)Nc2cc(Cl)c(-c4ccc(-c5ccccn5)cc4)cc23)cc1C(=O)O (stereo not shown)
Resp: 66

Note: attention shifts to another entry.
Req: Please give measured activation at 10 µM of the following entry: Cc1ccc(C2CC23C(=O)Nc2cc(Cl)c(-c4ccc(O)cc4)cc23)cc1C(=O)O (stereo not shown)
Resp: 40
